For each of the molecules below, state its viscosity.
ASSAY_REMARKS: xn = mol fraction of the nth substance listed
ASSAY_SETUP: 298.15 K; 101 kPa; x2 = 0.7
Answers are plain numbers, in mPa·s.

* CCCCCCCO + CCCO | 2.882
* CCCCCCCO + CCO | 2.111
* CCCCCCCO + CO | 1.534

May I ask what viscosity has been recorded for CCCCCCCO + CCCCO ?
3.654

====

ASSAY_REMARKS: xn = mol fraction of the nth substance listed
ASSAY_SETUP: 298.15 K; 101 kPa; x2 = 0.5
PROPERTY: viscosity (mPa·s)
One number for each entry, in mPa·s.

• CCCCCCCO + CCCO = 3.623
• CCCCCCCO + CCO = 2.954
• CCCCCCCO + CO = 2.475

Now look at this one.
Given the compound CCN(CC)CCO + O=C1CCCCC1 , what is its reported viscosity?
2.344
